Test system: CAKI-1 renal
method description: NCI-60 one-dose screen, 48 h
condition summary: 10 µM unless noted
Compounds without any hit were thinned out: in the full panel of roughly 83,000, 20% have a hit. Activity calls are given as the source filed them. Rule for the calls: active = growth percent below 10; inactive = the rest.
Possible outcomes: label 1 for active, label 0 for inactive

{"compound": "CC1=CC(=O)CC(C)(C)[C@@]1(O)/C=C/[C@@H](C)O", "experimental target": "CAKI-1 renal", "answer label": "label 0"}
{"compound": "CCN(CC)Cc1cc(Nc2c3ccccc3nc3cc(Cl)ccc23)ccc1O", "experimental target": "CAKI-1 renal", "answer label": "label 1"}
{"compound": "C[C@@]1(N2C(=O)OC[C@@H]2c2ccccc2)C(=O)N([C@H](CC(=O)N2CCC(N3CCCCC3)CC2)C(=O)NCc2cccc(C(F)(F)F)c2)[C@@H]1/C=C/c1ccccc1", "experimental target": "CAKI-1 renal", "answer label": "label 0"}
{"compound": "O=C(CN1CCN(c2cc3c(cc2F)c(=O)c(C(=O)N/N=C/c2ccccc2)cn3C2CC2)CC1)N/N=C\\c1ccccc1", "experimental target": "CAKI-1 renal", "answer label": "label 0"}
{"compound": "CCc1ccccc1NC(=O)c1sc2nc3c(cc2c1N)C(=O)CCC3", "experimental target": "CAKI-1 renal", "answer label": "label 0"}
{"compound": "CCOC(=O)c1ccc2c(c1)nc(/C=C/c1ccc(Cl)cc1)n2-c1cc(C(C)(C)C)[nH]n1", "experimental target": "CAKI-1 renal", "answer label": "label 0"}
{"compound": "COc1ccc(S(=O)(=O)NCCCNc2cc(-c3c(-c4cccc(OC)c4)nc4sccn34)ccn2)cc1", "experimental target": "CAKI-1 renal", "answer label": "label 0"}
{"compound": "Cn1c2c(Cl)c(Cl)ccc2c2ccn3c(=O)c4ccccc4nc3c21", "experimental target": "CAKI-1 renal", "answer label": "label 0"}
{"compound": "COc1cc2c(c(OC)c1OC)-c1ccc(N=NC(N)=S)c(=O)cc1[C@@H](NC(C)=O)CC2", "experimental target": "CAKI-1 renal", "answer label": "label 0"}
{"compound": "CN(C)CC(=O)Nc1ccc(Cn2nnc3c2C(=O)c2nnn(Cc4ccc(NC(=O)CN(C)C)cc4)c2C3=O)cc1", "experimental target": "CAKI-1 renal", "answer label": "label 0"}
{"compound": "c1ccc(CSc2ncnc3nc[nH]c23)nc1", "experimental target": "CAKI-1 renal", "answer label": "label 0"}
{"compound": "COc1cccc(-c2nc3sccn3c2-c2ccnc(NCCCNS(=O)(=O)c3ccc(Cl)cc3)c2)c1", "experimental target": "CAKI-1 renal", "answer label": "label 0"}
{"compound": "Cc1cc(Nc2nc(N3CCNCC3)nc3ccccc23)n[nH]1", "experimental target": "CAKI-1 renal", "answer label": "label 0"}
{"compound": "CC#CC#Cc1cccc(=O)o1", "experimental target": "CAKI-1 renal", "answer label": "label 1"}
{"compound": "Cc1ccc2c(c1)O/C(=C\\c1cccc(OCC(=O)c3ccccc3)c1)C2=O", "experimental target": "CAKI-1 renal", "answer label": "label 0"}
{"compound": "NC(=S)N/N=C/c1ccc(OCc2ccccc2)cc1", "experimental target": "CAKI-1 renal", "answer label": "label 0"}
{"compound": "NC1=CC(=O)C(=O)c2ccccc21", "experimental target": "CAKI-1 renal", "answer label": "label 0"}
{"compound": "COc1ccc(-c2nn(-c3ccccc3)cc2/C=C/C(=O)OCc2cn(-c3ccc(F)c(Cl)c3)nn2)cc1", "experimental target": "CAKI-1 renal", "answer label": "label 0"}
{"compound": "COc1ccc(CN(c2ccc(C)cc2)C2OC(=O)c3ccccc32)cc1OC (stereo not drawn)", "experimental target": "CAKI-1 renal", "answer label": "label 0"}
{"compound": "O=C(Cc1ccccc1)c1ccc(Cl)cc1", "experimental target": "CAKI-1 renal", "answer label": "label 0"}
{"compound": "Nc1c(C(=O)Nc2ccccc2Cl)sc2nc3c(cc12)CCCCCC3", "experimental target": "CAKI-1 renal", "answer label": "label 0"}
{"compound": "COC(=O)C12C3C(=O)N(c4ccc(OC)cc4)C(=O)C3C(c3cn(-c4ccccc4)nc3C)N1[C@H](c1cn(-c3ccccc3)nc1C)[C@@H]1C(=O)N(c3ccc(OC)cc3)C(=O)[C@@H]12 (stereo partly drawn)", "experimental target": "CAKI-1 renal", "answer label": "label 0"}
{"compound": "CCOC(=O)CC(C)=N", "experimental target": "CAKI-1 renal", "answer label": "label 0"}
{"compound": "C/C=C/C(N)=O", "experimental target": "CAKI-1 renal", "answer label": "label 0"}
{"compound": "NS(=O)(=O)N(c1cc(C(F)(F)F)cc(C(F)(F)F)c1)C1CCN(Cc2ccc(F)cc2)CC1", "experimental target": "CAKI-1 renal", "answer label": "label 0"}
{"compound": "O=[N+]([O-])c1cccc(-c2nc3sccn3c2-c2ccnc(NCCCNS(=O)(=O)c3ccc(Br)cc3)n2)c1", "experimental target": "CAKI-1 renal", "answer label": "label 0"}
{"compound": "O=c1cc(-c2ccccc2)[nH]c2ccccc12", "experimental target": "CAKI-1 renal", "answer label": "label 0"}
{"compound": "CCCCOc1ccc(NC(=O)n2nc(NC(C)=O)c3cc(NC(C)=O)ccc32)cc1", "experimental target": "CAKI-1 renal", "answer label": "label 0"}
{"compound": "O=c1c2cccc3c(NC4CCCCC4)ccc(c32)c2nc3ccccc3n12", "experimental target": "CAKI-1 renal", "answer label": "label 0"}
{"compound": "CC(=O)C1=C(O)C=C2Oc3c(C(=O)/C=C/c4cc(Cl)cc(Cl)c4)c(O)c(C)c(O)c3[C@]2(C)C1=O", "experimental target": "CAKI-1 renal", "answer label": "label 1"}
{"compound": "Nc1ccc(Nc2nccc(-c3ccc4ccccc4c3)n2)cc1", "experimental target": "CAKI-1 renal", "answer label": "label 0"}
{"compound": "C[C@H](CCC(=O)O)[C@H]1CC[C@H]2[C@@H]3CC[C@@H]4/C(=C\\c5ccco5)C(=O)/C(=C\\c5ccco5)C[C@]4(C)[C@H]3CC[C@]12C", "experimental target": "CAKI-1 renal", "answer label": "label 0"}
{"compound": "COc1cc(C2C(C(=O)c3cccs3)=C(O)C(=O)N2CCN2CCOCC2)cc(OC)c1OC (stereo not drawn)", "experimental target": "CAKI-1 renal", "answer label": "label 0"}
{"compound": "CC(=O)N1CC(Nc2ccc(OC(F)(F)F)cc2)=CC1=O", "experimental target": "CAKI-1 renal", "answer label": "label 0"}
{"compound": "O=C(O)c1cccc2c1-c1ccccc1C2=O", "experimental target": "CAKI-1 renal", "answer label": "label 0"}
{"compound": "CC(C)[C@H]1COC(=O)N1[C@@H]1C(=O)N([C@@H](CCC(=O)N2CCN(C3CCCC3)CC2)C(=O)N[C@@H]2CCCc3ccccc32)[C@@H]1/C=C/c1cccc(Br)c1", "experimental target": "CAKI-1 renal", "answer label": "label 0"}
{"compound": "COc1ccc(-c2cc(C(=O)N=Nc3c(O)[nH]c4ccccc34)no2)cc1", "experimental target": "CAKI-1 renal", "answer label": "label 0"}
{"compound": "CCCCNP1(NCCCC)=NP(NCCCC)(NCCCC)=NP(NCCCC)(NCCCC)=NP(NCCCC)(NCCCC)=N1", "experimental target": "CAKI-1 renal", "answer label": "label 0"}
